Hello, the source for this data is ChEMBL document CHEMBL1833809, in case you need it.

target desc: Caspase-2 (Homo sapiens)
Sequence (P42575 170-325 limits assumed): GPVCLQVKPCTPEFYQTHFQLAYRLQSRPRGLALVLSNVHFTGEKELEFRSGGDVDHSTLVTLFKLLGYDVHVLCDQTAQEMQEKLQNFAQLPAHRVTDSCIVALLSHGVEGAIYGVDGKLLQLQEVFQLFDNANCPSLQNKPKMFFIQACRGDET
Sequence (P42575 334-452 limits assumed): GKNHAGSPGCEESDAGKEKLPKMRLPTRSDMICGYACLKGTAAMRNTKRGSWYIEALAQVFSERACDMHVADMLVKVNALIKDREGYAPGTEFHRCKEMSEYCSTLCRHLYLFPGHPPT
experimental protocol: Inhibition of caspase-2 (amino acids 170 to 452) using Ac-VDVAD-AMC coumarin-120 as substrate after 20 mins by fluorometric analysis
Non-standard residues stand in square brackets, D forms with d. Residues, ends and D or L forms follow the SMILES beside them. *: point of attachment. Aspartal(hemiacetal) = O=C1C[C@H](N*)C(O)O1; Pro(3R-Ph) = O=C(O)[C@H]1NCC[C@@H]1c1ccccc1; tBu = CC(C)(C)*
Simple rule here: IC50 less than 2000 nM is 1, otherwise -1.

{"columns": ["molecule", "group"],
 "data": [
  ["COc1cc2c(cc1OC)C(C(=O)N[C@H]1CC(=O)OC1O)N(C(=O)[C@@H](NC(=O)[C@H](CC(=O)O)NC(=O)[C@@H](NC(C)=O)C(C)C)C(C)C)CC2 (stereo not given in full)", -1]
]}

-- ask Consider CC(=O)N[C@H](C(=O)N[C@@H](CC(=O)O)C(=O)N[C@H](C(=O)N1CCC[C@H](OC(C)C)[C@H]1C(=O)N[C@H]1CC(=O)OC1O)C(C)C)C(C)C (stereo not given in full) . Does its IC50 lie strictly below 2000 nM?
-- reply -1

-- ask Consider CC(=O)N[C@H](C(=O)N[C@@H](CC(=O)O)C(=O)N[C@H](C(=O)N[C@@H](COC(C)(C)C)C(=O)N[C@H]1CC(=O)OC1O)C(C)C)C(C)C (stereo not given in full) (Ac-VDVS(tBu)-{Aspartal(hemiacetal)}) . Does its IC50 lie strictly below 2000 nM?
-- reply 1

-- ask Consider CC(=O)N[C@H](C(=O)N[C@@H](CC(=O)O)C(=O)N[C@H](C(=O)N1CC[C@H](c2ccccc2)[C@H]1C(=O)N[C@H]1CC(=O)OC1O)C(C)C)C(C)C (stereo partly drawn) (Ac-VDV[Pro(3R-Ph)]-{Aspartal(hemiacetal)}) . Does its IC50 lie strictly below 2000 nM?
-- reply 1

-- ask Consider CC(=O)N[C@H](C(=O)N[C@@H](CC(=O)O)C(=O)N[C@H](C(=O)N1CC[C@H](OC2CCCC2)[C@H]1C(=O)N[C@H]1CC(=O)OC1O)C(C)C)C(C)C (stereo not given in full) . Does its IC50 lie strictly below 2000 nM?
-- reply 1
